Data provenance is patent US10479780B2.

- TARGET_SYSTEM: human Yes1 enzyme (Homo sapiens, UniProt P07947)
- Construct: made in house
- Sequence (P07947 whole entry): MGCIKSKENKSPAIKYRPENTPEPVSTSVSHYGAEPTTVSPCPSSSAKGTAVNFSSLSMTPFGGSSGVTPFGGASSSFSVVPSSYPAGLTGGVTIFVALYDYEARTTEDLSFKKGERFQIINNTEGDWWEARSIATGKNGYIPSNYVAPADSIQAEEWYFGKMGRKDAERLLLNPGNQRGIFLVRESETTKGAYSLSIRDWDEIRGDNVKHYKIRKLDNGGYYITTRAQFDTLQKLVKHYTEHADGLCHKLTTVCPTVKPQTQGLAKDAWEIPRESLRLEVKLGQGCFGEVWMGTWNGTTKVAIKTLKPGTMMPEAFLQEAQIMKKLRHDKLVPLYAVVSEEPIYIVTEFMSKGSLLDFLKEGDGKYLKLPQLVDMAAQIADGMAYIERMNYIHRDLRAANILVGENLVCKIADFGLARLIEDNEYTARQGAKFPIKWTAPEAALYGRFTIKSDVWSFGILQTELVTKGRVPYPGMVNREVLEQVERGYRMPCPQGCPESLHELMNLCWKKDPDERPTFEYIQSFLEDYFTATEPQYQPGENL
- RUN_DESCRIPTION: Yes1 enzyme inhibitory activity (time-resolved fluorometry, biotinylated peptide phosphorylation)
- Assay type: biochemical
- EXPERIMENTAL_PARAMETERS: biotinylated peptide phosphorylation, read-out: YES_IC50
pIC50: −log10 of the molar value.
MEASURED_ATTRIBUTE: pIC50

Solved entries (count: 4):
Cc1cc(Oc2c(F)cccc2F)ncc1-n1ncc(C(=O)c2cc3cc(OC(F)F)c(NC4CCN(S(C)(=O)=O)CC4)cc3[nH]2)c1N 8.27
Cc1cc(Oc2ccccc2F)ccc1-n1ncc(C(=O)c2cc3cc(F)c(NS(=O)(=O)c4cncc(F)c4)cc3[nH]2)c1N 8.54
Cc1cc(Oc2c(F)cccc2F)ncc1-n1ncc(C(=O)c2cc3cc(OCC(F)F)c(-n4c(C)cc(=O)[nH]c4=O)cc3[nH]2)c1N 8.33
Cc1cc(Oc2ccccc2Cl)ccc1-n1ncc(C(=O)c2cc3cc(F)c(C4CCN(C(C)C)CC4)cc3[nH]2)c1N 8.66

[a] Cc1cc(Oc2ccccc2F)cc(F)c1-n1ncc(C(=O)c2cc3cc(OCC(F)F)c(NC4CCN(S(C)(=O)=O)CC4)cc3[nH]2)c1N
[b] Cc1cc(Oc2c(F)cccc2F)ncc1-n1ncc(C(=O)c2cc3cc(F)c(N4CC5(CCCC5)NS4(=O)=O)cc3[nH]2)c1N
Ask | Returns the identifier with the smallest measured pIC50 among a and b . Respond using the label that marks the chosen record.
Reply | a

====

- TARGET_SYSTEM: human Yes1 enzyme (Homo sapiens, UniProt P07947)
- Construct: made in house
- RUN_DESCRIPTION: Yes1 enzyme inhibitory activity (time-resolved fluorometry, biotinylated peptide phosphorylation)
- Assay type: biochemical
- EXPERIMENTAL_PARAMETERS: read-out: YES_IC50
MEASURED_ATTRIBUTE: IC50 (nM)

COMPOUND	IC50 [nM]
Cc1cc2cc(C(=O)c3cnn(-c4cnc(Oc5c(F)cccc5F)cc4C)c3N)[nH]c2cc1N1C(=O)NC2(CCN(Cc3ccccc3)C2)C1=O (stereo not shown)	11
CC(C)N1CCC(c2cc3cc(C(=O)c4cnn(-c5ccc(Oc6cccc(F)c6)cc5F)c4N)[nH]c3cc2F)CC1	0.87
Cc1cc(-n2ncc(C(=O)c3cc4cc(OCC(F)F)c(-c5cccs5)cc4[nH]3)c2N)ccc1Oc1ccccc1F	120

[P] Cc1cc2cc(C(=O)c3cnn(-c4cnc(Oc5ccccc5F)cc4C)c3N)[nH]c2cc1NS(=O)(=O)C1CCOCC1
[Q] Cc1cc2cc(C(=O)c3cnn(-c4ccc(Oc5c(F)cccc5F)cc4C)c3N)[nH]c2cc1NS(C)(=O)=O
Ask | Returns the identifier with the smallest measured IC50 among P and Q . Respond using the label that marks the chosen record.
Reply | Q

[a] Cc1cc(Oc2c(F)cccc2F)ncc1-n1ncc(C(=O)c2cc3cc(OCC(F)F)c(NS(=O)(=O)c4ccccc4Cl)cc3[nH]2)c1N
[b] Cc1cc(Oc2c(F)cccc2F)ncc1-n1ncc(C(=O)c2cc3cc(OC4CCN(C(C)C)CC4)c(N4CCC(O)CC4)cc3[nH]2)c1N
[c] Cc1cc2cc(C(=O)c3cnn(-c4cnc(Oc5c(F)cccc5F)cc4C)c3N)[nH]c2cc1N1C(=O)NC2(CCNC2)C1=O (stereo not shown)
[d] Cc1cc2cc(C(=O)c3cnn(-c4cnc(Oc5c(F)cccc5F)cc4C)c3N)[nH]c2cc1N1C(=O)NC2(CCCC2)C1=O
Ask | Sort the 4 compounds by IC50; largest first, smallest last. To answer, write out the labels according to the requested order.
Reply | a, d, c, b
(a: 14 nM, d: 5.6 nM, c: 1.8 nM, b: 0.17 nM)

====

- TARGET_SYSTEM: human Src enzyme (Homo sapiens)
- Construct: purchased Carna Biosciences, Inc. 08-173
- RUN_DESCRIPTION: Src enzyme inhibitory activity (time-resolved fluorometry, biotinylated peptide phosphorylation)
- Assay type: biochemical
- EXPERIMENTAL_PARAMETERS: biotinylated peptide phosphorylation, read-out: SRC_IC50
pIC50: −log10 of the molar value.
MEASURED_ATTRIBUTE: pIC50

Solved entries (count: 5):
COMPOUND	VALUE_OBSERVED
Cc1cc(Oc2cccc(Cl)c2)ncc1-n1ncc(C(=O)c2cc3cc(Cl)c(NS(C)(=O)=O)cc3[nH]2)c1N	6.46
Cc1cc2cc(C(=O)c3cnn(-c4cnc(Oc5ccccc5F)cc4C)c3N)[nH]c2cc1NS(=O)(=O)N1CCOCC1	7.03
Cc1cccc(S(=O)(=O)Nc2cc3[nH]c(C(=O)c4cnn(-c5cnc(Oc6c(F)cccc6F)cc5C)c4N)cc3cc2F)n1	6.29
Cc1cc(Oc2ccccc2F)ccc1-n1ncc(C(=O)c2cc3cc(OCC(F)F)c(N4CCOCC4)cc3[nH]2)c1N	7.85
Cc1cc(Oc2ccccc2F)ccc1-n1ncc(C(=O)c2cc3cc(F)c(NS(=O)(=O)CC4COCCO4)cc3[nH]2)c1N (stereo not shown)	8.02

[I] Cc1cc2cc(C(=O)c3cnn(-c4cnc(Oc5ccccc5F)cc4C)c3N)[nH]c2cc1NS(=O)(=O)c1cccc(Cl)n1
[II] Cc1cc2cc(C(=O)c3cnn(-c4cnc(Oc5c(F)cccc5F)cc4C)c3N)[nH]c2cc1N1CCCS1(=O)=O
Ask | Among I and II , which shows a numerically higher pIC50 result? Respond using the label that marks the chosen record.
Reply | II
(II: 7.37, I: 6.04)

====

- TARGET_SYSTEM: human Src enzyme (Homo sapiens, UniProt P12931)
- Construct: purchased Carna Biosciences, Inc. 08-173
- Sequence (P12931 whole entry): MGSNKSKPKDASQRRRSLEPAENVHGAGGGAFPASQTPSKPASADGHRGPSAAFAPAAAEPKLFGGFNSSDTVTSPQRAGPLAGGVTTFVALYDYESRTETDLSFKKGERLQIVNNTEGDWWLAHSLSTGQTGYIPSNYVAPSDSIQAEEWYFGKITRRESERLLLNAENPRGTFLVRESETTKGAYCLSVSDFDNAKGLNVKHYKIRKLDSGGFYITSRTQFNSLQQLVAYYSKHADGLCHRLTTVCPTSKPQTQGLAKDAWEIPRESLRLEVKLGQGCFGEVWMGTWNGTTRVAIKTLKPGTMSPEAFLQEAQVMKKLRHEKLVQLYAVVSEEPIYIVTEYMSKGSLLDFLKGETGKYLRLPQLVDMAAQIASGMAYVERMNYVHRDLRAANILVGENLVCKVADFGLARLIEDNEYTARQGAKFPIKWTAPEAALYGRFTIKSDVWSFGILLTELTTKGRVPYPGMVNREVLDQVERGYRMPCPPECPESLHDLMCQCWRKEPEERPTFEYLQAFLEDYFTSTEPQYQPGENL
- RUN_DESCRIPTION: Src enzyme inhibitory activity (time-resolved fluorometry, biotinylated peptide phosphorylation)
- Assay type: biochemical
- EXPERIMENTAL_PARAMETERS: biotinylated peptide phosphorylation, read-out: SRC_IC50
- Description: 2. Src Enzyme Inhibitory Activity Src inhibitory activity was determined based on activity of inhibiting phosphorylation reaction of a biotinylated peptide (EGPWLEEEEEAYGWMDF) using a human Src enzyme (manufactured by Carna Biosciences, Inc., cat 08-173). The phosphorylated biotinylated peptide was detected by time-resolved fluorometry using an anti-phosphorylated tyrosine antibody conjugated to europium cryptate, and streptavidin conjugated to XL665, an allophycocyanin derivative. […]
pIC50: −log10 of the molar value.
MEASURED_ATTRIBUTE: pIC50

Solved entries (count: 3):
COMPOUND	MEASURED_ATTRIBUTE	VALUE_OBSERVED
Cc1cc2cc(C(=O)c3cnn(-c4ccc(Oc5ccccc5F)cc4C)c3N)[nH]c2cc1N1CCCS1(=O)=O [Example 4-2-112]	pIC50	7.64
Cc1cc(Oc2ccccc2F)ccc1-n1ncc(C(=O)c2cc3cc(OCC(F)F)c(NC4COC4)cc3[nH]2)c1N [Example 4-23-016]	pIC50	7.68
COc1cc2cc(C(=O)c3cnn(-c4ccc(Oc5ccccc5F)cc4C)c3N)[nH]c2cc1N1CCCS1(=O)=O [Example 4-14-002]	pIC50	8.06

[I] Cc1cc(Oc2ccccc2F)ncc1-n1ncc(C(=O)c2cc3cc(NS(C)(=O)=O)c(F)cc3[nH]2)c1N [Example 4-2-104]
[II] Cc1cc2cc(C(=O)c3cnn(-c4cnc(Oc5ccccc5C)cc4C)c3N)[nH]c2cc1NS(C)(=O)=O [Example 4-2-065]
Ask | Returns the identifier with the smallest measured pIC50 among I and II . Respond using the label that marks the chosen record.
Reply | II
(II: 7.36, I: 7.66)

[1] Cc1cc(Oc2ccccc2F)ccc1-n1ncc(C(=O)c2cc3cc(F)c(N4CC5(CCOCC5)NS4(=O)=O)cc3[nH]2)c1N [Example 5-1-403]
[2] COc1cc2cc(C(=O)c3cnn(-c4cnc(Oc5ccccc5F)cc4C)c3N)[nH]c2cc1N1CCCS1(=O)=O [Example 4-14-001]
Ask | Returns the identifier with the smallest measured pIC50 among 1 and 2 . Respond using the label that marks the chosen record.
Reply | 1
(1: 7.06, 2: 7.68)

====

- TARGET_SYSTEM: human Yes1 enzyme (Homo sapiens, UniProt P07947)
- Construct: made in house
- RUN_DESCRIPTION: Yes1 enzyme inhibitory activity (time-resolved fluorometry, biotinylated peptide phosphorylation)
- Format: biochemical
- EXPERIMENTAL_PARAMETERS: biotinylated peptide phosphorylation, read-out: YES_IC50
- Description: 1. Yes1 Enzyme Inhibitory Activity Yes1 inhibitory activity was determined based on activity of inhibiting phosphorylation reaction of a biotinylated peptide (EGPWLEEEEEAYGWMDF) using a human Yes1 enzyme prepared using a baculovirus expression system. The phosphorylated biotinylated peptide was detected by time-resolved fluorometry using an anti-phosphorylated tyrosine antibody conjugated to europium cryptate, and streptavidin conjugated to XL665, an allophycocyanin derivative. […]
MEASURED_ATTRIBUTE: IC50 (nM)

Cc1cc(Oc2c(F)cccc2F)ncc1-n1ncc(C(=O)c2cc3cc(OC(F)F)c(C4CCN(S(=O)(=O)C5CC5)CC4)cc3[nH]2)c1N 17

[a] Cc1cc2cc(C(=O)c3cnn(-c4cnc(Oc5ccccc5F)cc4C)c3N)[nH]c2cc1NS(=O)(=O)c1cccc(F)c1
[b] Cc1cc(Oc2ccccc2F)ncc1-n1ncc(C(=O)c2cc3cc(OCC(F)F)c(NS(=O)(=O)C4CC4)cc3[nH]2)c1N
[c] COc1ccccc1-c1cc2[nH]c(C(=O)c3cnn(-c4cnc(Oc5c(F)cccc5F)cc4C)c3N)cc2cc1OC1CCN(C2CCCC2)CC1
[d] Cc1cc(Oc2ccccc2F)ccc1-n1ncc(C(=O)c2cc3cc(F)c(NS(=O)(=O)CC(=O)N4CCOCC4)cc3[nH]2)c1N
[e] Cc1cc(Oc2ccccc2F)ncc1-n1ncc(C(=O)c2cc3cc(F)c(NS(=O)(=O)NCCO)cc3[nH]2)c1N
Ask | Sort the 5 compounds by IC50; largest first, smallest last. To answer, write out the labels according to the requested order.
Reply | a, b, c, e, d
(a: 5.7 nM, b: 3.2 nM, c: 1.9 nM, e: 0.92 nM, d: 0.53 nM)
